Tested on: Salmonella typhimurium S-9
Test: In vivo efficacy against systemic infection with Salmonella typhimurium in mice
Parameters: species or system mice (ddY-S)
Details: po, 25 mg/kg, 14 days
Documented number of the survived/the total number across a set of compounds
REPORTED_METRIC: number of the survived/the total number

>  <COMPOUND>
CCn1cc(C(=O)O)c(=O)c2cnc(N3CCCC3)nc21 [Compound PA, reference compound]

>  <VALUE_REPORTED>
3/10

$$$$
>  <COMPOUND>
C=Cn1cc(C(=O)O)c(=O)c2cnc(N3CCNCC3)nc21.Cl

>  <VALUE_REPORTED>
6/8

$$$$
>  <COMPOUND>
CCN1CCN(c2ncc3c(=O)c(C(=O)O)cn(CC)c3n2)CC1

>  <VALUE_REPORTED>
8/8

$$$$
>  <COMPOUND>
CCn1cc(C(=O)O)c(=O)c2cnc(N3CCNCC3)nc21

>  <VALUE_REPORTED>
8/8

$$$$
>  <COMPOUND>
C#CCN1CCN(c2ncc3c(=O)c(C(=O)O)cn(CC)c3n2)CC1

>  <VALUE_REPORTED>
6/8

$$$$

====

# Staphylococcus aureus Terajima: MIC values follow

>  <COMPOUND>
CCn1cc(C(=O)O)c(=O)c2cnc(N3CCCC3)nc21 [Compound PA, reference compound]

>  <COMPARATOR>
=

>  <MIC (µg/mL)>
10

$$$$
>  <COMPOUND>
CCn1cc(C(=O)O)c(=O)c2cnc(N3CCN(Cc4ccc(OC)cc4)CC3)nc21 [Compound 17]

>  <COMPARATOR>
=

>  <MIC (µg/mL)>
10

$$$$
>  <COMPOUND>
Cl.O=C(O)c1cn(CCCl)c2nc(N3CCNCC3)ncc2c1=O [Compound 63]

>  <COMPARATOR>
=

>  <MIC (µg/mL)>
30

$$$$
>  <COMPOUND>
CCCn1cc(C(=O)O)c(=O)c2cnc(N3CCNCC3)nc21 [Compound 2]

>  <COMPARATOR>
=

>  <MIC (µg/mL)>
100

$$$$
>  <COMPOUND>
CCN1CCN(c2ncc3c(=O)c(C(=O)O)cn(CC)c3n2)CC1 [Compound 21]

>  <COMPARATOR>
=

>  <MIC (µg/mL)>
30

$$$$
>  <COMPOUND>
CCn1cc(C(=O)O)c(=O)c2cnc(N3CCN(CC(C)O)CC3)nc21 (stereo not shown) [Compound 4]

>  <COMPARATOR>
=

>  <MIC (µg/mL)>
30

$$$$
>  <COMPOUND>
CCn1cc(C(=O)O)c(=O)c2cnc(N3CCNCC3)nc21.Cl [Compound 11]

>  <COMPARATOR>
=

>  <MIC (µg/mL)>
30

$$$$
>  <COMPOUND>
CCn1cc(C(=O)O)c(=O)c2cnc(N3CCNCC3)nc21 [Compound 1]

>  <COMPARATOR>
=

>  <MIC (µg/mL)>
30

$$$$
>  <COMPOUND>
C=Cn1cc(C(=O)O)c(=O)c2cnc(N3CCNCC3)nc21.Cl [Compound 54]

>  <COMPARATOR>
>

>  <MIC (µg/mL)>
100

$$$$
>  <COMPOUND>
C=CCn1cc(C(=O)O)c(=O)c2cnc(N3CCNCC3)nc21 [Compound 50]

>  <COMPARATOR>
=

>  <MIC (µg/mL)>
100

$$$$
>  <COMPOUND>
O=C(O)c1cn(Cc2ccccc2)c2nc(N3CCNCC3)ncc2c1=O [Compound 33]

>  <COMPARATOR>
=

>  <MIC (µg/mL)>
100

$$$$
>  <COMPOUND>
CCn1cc(C(=O)O)c(=O)c2cnc(N3CCC(O)C3)nc21 (stereo not shown) [Compound AT-616, reference compound]

>  <COMPARATOR>
=

>  <MIC (µg/mL)>
30

$$$$
>  <COMPOUND>
C#CCN1CCN(c2ncc3c(=O)c(C(=O)O)cn(CC)c3n2)CC1 [Compound 38]

>  <COMPARATOR>
=

>  <MIC (µg/mL)>
10

$$$$

====

Overview of recorded ED50 for various compounds
Test system: Pseudomonas aeruginosa No. 12
Experiment: In vivo efficacy against systemic infection with Pseudomonas aeruginosa in mice
Design: species or system mice (ddY-S)
Conditions: NO.12, 168 h, ip, twice, about 5 minutes and 6 hours after infection, 7 days
REPORTED_METRIC: ED50

>  <COMPOUND>
CCn1cc(C(=O)O)c(=O)c2cnc(N3CCNCC3)nc21.Cl

>  <STUDY_TARGET>
Pseudomonas aeruginosa No. 12

>  <VALUE_REPORTED>
< 17.7 mg/kg

$$$$
>  <COMPOUND>
CCn1cc(C(=O)O)c(=O)c2cnc(N3CCC(O)C3)nc21 (stereo not drawn) [Compound AT-616, reference compound]

>  <STUDY_TARGET>
Pseudomonas aeruginosa No. 12

>  <VALUE_REPORTED>
> 100 mg/kg

$$$$
>  <COMPOUND>
CCCn1cc(C(=O)O)c(=O)c2cnc(N3CCNCC3)nc21

>  <STUDY_TARGET>
Pseudomonas aeruginosa No. 12

>  <VALUE_REPORTED>
35.4 mg/kg

$$$$
>  <COMPOUND>
CCn1cc(C(=O)O)c(=O)c2cnc(N3CCCC3)nc21 [Compound PA, reference compound]

>  <STUDY_TARGET>
Pseudomonas aeruginosa No. 12

>  <VALUE_REPORTED>
> 100 mg/kg

$$$$
>  <COMPOUND>
CCn1cc(C(=O)O)c(=O)c2cnc(N3CCNCC3)nc21

>  <STUDY_TARGET>
Pseudomonas aeruginosa No. 12

>  <VALUE_REPORTED>
10.5 mg/kg

$$$$
>  <COMPOUND>
C=CCn1cc(C(=O)O)c(=O)c2cnc(N3CCNCC3)nc21

>  <STUDY_TARGET>
Pseudomonas aeruginosa No. 12

>  <VALUE_REPORTED>
35 mg/kg

$$$$
>  <COMPOUND>
Cl.O=C(O)c1cn(CCCl)c2nc(N3CCNCC3)ncc2c1=O

>  <STUDY_TARGET>
Pseudomonas aeruginosa No. 12

>  <VALUE_REPORTED>
< 17.7 mg/kg

$$$$
>  <COMPOUND>
O=C(O)c1cn(Cc2ccccc2)c2nc(N3CCNCC3)ncc2c1=O

>  <STUDY_TARGET>
Pseudomonas aeruginosa No. 12

>  <VALUE_REPORTED>
< 17.7 mg/kg

$$$$
>  <COMPOUND>
CCN1CCN(c2ncc3c(=O)c(C(=O)O)cn(CC)c3n2)CC1

>  <STUDY_TARGET>
Pseudomonas aeruginosa No. 12

>  <VALUE_REPORTED>
~100 mg/kg

$$$$
